assay target: Mitogen-activated protein kinase kinase kinase kinase 4 (Homo sapiens)
Sequence (O95819 whole entry): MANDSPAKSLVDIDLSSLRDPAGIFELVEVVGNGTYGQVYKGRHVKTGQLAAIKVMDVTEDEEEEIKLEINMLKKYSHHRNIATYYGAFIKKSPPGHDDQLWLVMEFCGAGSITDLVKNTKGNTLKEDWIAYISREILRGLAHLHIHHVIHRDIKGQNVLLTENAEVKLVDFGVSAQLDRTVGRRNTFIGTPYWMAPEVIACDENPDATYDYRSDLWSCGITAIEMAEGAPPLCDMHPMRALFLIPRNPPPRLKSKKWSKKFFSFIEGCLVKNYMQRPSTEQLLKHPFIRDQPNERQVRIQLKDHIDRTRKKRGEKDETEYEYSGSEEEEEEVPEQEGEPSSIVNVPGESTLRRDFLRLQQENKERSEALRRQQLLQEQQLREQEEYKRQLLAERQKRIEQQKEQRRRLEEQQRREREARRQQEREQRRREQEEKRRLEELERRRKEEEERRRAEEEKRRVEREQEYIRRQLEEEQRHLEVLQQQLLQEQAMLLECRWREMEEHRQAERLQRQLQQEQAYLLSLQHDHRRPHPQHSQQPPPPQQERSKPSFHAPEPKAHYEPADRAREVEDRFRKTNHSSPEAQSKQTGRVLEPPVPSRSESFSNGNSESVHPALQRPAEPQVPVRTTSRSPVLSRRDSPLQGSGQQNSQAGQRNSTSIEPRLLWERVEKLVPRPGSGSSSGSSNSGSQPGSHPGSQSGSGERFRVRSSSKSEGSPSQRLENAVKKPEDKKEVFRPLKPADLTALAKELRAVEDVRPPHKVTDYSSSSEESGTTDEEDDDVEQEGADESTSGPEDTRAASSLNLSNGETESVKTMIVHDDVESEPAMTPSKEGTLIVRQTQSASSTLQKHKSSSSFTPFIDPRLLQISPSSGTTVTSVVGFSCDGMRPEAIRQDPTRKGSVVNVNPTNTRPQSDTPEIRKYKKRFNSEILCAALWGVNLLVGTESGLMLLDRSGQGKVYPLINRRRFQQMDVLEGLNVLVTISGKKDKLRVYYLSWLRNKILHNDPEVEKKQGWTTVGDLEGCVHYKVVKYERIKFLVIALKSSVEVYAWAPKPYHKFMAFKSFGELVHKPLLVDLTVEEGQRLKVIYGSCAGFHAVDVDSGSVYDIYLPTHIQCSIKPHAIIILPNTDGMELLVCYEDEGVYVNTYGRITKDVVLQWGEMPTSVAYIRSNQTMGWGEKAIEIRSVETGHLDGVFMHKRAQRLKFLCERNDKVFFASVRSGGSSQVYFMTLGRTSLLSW
Format: functional
Calls of active or inactive are those of the source.
Recorded Ki by entry

Some solved entries appear below for comparison.
Cc1ccc(F)c(NC(=O)Nc2ccc(-c3cccc4[nH]nc(N)c34)cc2)c1 = > 5.01 µM (inactive)
COc1ccccc1C(=O)Nc1n[nH]c2ccc(-c3cn(Cc4ccccc4)nn3)cc12 = 0.0794 µM (active)
COC(=O)c1c(N)nc2ccccn12 = 12.6 µM (active)

[ask] Consider the molecule COc1c(-c2nc3ccccc3[nH]2)c(O)cc2oc(C)cc(=O)c12 and give its measured Ki.
[reply] 5.01 µM (active)

* * *

assay target: Protein skinhead-1 (Caenorhabditis elegans, UniProt P34707)
Sequence (P34707 whole entry): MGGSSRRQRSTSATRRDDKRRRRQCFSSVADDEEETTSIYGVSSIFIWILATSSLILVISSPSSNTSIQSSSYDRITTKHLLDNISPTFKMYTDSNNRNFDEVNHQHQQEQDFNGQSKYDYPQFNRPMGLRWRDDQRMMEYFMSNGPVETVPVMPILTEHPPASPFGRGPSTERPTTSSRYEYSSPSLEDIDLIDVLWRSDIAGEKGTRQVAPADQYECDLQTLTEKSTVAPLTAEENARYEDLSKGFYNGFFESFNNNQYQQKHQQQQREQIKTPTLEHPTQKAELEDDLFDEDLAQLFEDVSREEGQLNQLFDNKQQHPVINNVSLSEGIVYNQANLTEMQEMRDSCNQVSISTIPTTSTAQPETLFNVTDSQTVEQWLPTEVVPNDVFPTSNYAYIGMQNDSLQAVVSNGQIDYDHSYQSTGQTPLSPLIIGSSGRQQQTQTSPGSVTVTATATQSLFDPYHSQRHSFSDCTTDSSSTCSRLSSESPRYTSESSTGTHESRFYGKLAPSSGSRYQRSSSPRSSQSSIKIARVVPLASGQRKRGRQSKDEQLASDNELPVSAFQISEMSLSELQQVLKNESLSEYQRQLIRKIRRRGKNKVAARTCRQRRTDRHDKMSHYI
Format: functional
Activity calls are given as the source filed them.
measured attribute: IC50

Some solved entries appear below for comparison.
O=C1C=C(N2CC2)c2ccccc2C1=O = > 100 µM (inactive)
COc1ccccc1N1CCN(CCC(=O)Nc2ccc3c(c2)OCO3)CC1 = > 100 µM (inactive)
CCn1c(CSc2nnc(-c3ccncc3)n2CCOC)nc2cc(C(=O)O)ccc21 = > 100 µM (inactive)
Clc1ccc(-n2nnc(-c3cccnc3)n2)cc1Cl = 57.3 µM (inactive)
COc1ccc(C2C3=C(N=C4SCC(=O)N42)c2ccccc2CC3)cc1OC (configuration not stated) = > 100 µM (inactive)
Cc1ccc(CSc2nc3ccccc3c(=O)n2Cc2ccco2)cc1 = > 100 µM (inactive)
CCCc1cc(-c2nc(-c3ccc(Cl)cc3)cs2)ccn1 = 21 µM (active)
COc1cccc(-c2cc(C(=O)Nc3nc4ccccc4s3)c3ccccc3n2)c1 = > 100 µM (inactive)

[ask] Consider the compound Clc1ccc(-c2cnc3ccccc3n2)cc1 and give its measured IC50.
[reply] 92 µM (inactive)

[ask] Now consider CCc1nc2ccccc2c(C(=O)OCC(=O)N(CCOC)c2c(N)n(Cc3ccccc3)c(=O)[nH]c2=O)c1C and answer again.
[reply] > 100 µM (inactive)

[ask] Now consider CCCCNC(=O)OCC(CC)NC(=O)OCC(C)C (configuration not stated) and answer again.
[reply] > 100 µM (inactive)

[ask] Now consider Cc1csc2nc(CNS(=O)(=O)c3ccc4c(c3)CCCC4)cn12 and answer again.
[reply] > 100 µM (inactive)
